Taken from ChEMBL document CHEMBL4371029.

The compounds below have reported IC50 for cGMP-specific 3',5'-cyclic phosphodiesterase (Rattus norvegicus).
Measured metric: IC50 (nM)

(1) COc1cccc(CNc2nc(Nc3cccc(S(N)(=O)=O)c3)nc3cc(OC)c(OC)cc23)c1
(2) COc1cc2nc(Nc3cccc(S(N)(=O)=O)c3)nc(NCc3ccccc3)c2cc1OC
Task: Param metric = IC50; output whichever of 1 , 2 has the minimum value. Pick one; state its label.
Output: 2

(I) NS(=O)(=O)c1ccc(Nc2nc(NCc3ccccc3)c3ccccc3n2)cc1
(II) COc1cc2nc(Nc3cccc(S(N)(=O)=O)c3)nc(NCc3cccs3)c2cc1OC
Task: Between the entries labelled I and II , which has a larger IC50 value on record? Respond with the label that goes with your answer.
Output: I

----------
- Protocol text: Equilibrium solubility of the compound in pH 7.4 phosphate buffer saline at 1 mg sonicated for 1 hr followed by 6 hrs incubation by shake flask method
- Assay type: physicochemical
- Test parameters: phosphate buffered saline
Measured metric: solubility thermodynamic at 6 h (µM)

The examples below pair each entry with its known result.
Smiles representation: c1ccc(CNc2nc(Nc3ccccc3)nc3ccccc23)cc1
solubility thermodynamic at 6 h, µM: 410
--
Smiles representation: c1csc(CNc2nc(Nc3ccc(N4CCOCC4)cc3)nc3ccccc23)c1
solubility thermodynamic at 6 h, µM: 480
--
Smiles representation: NS(=O)(=O)c1cccc(Nc2nc(NCc3cccs3)c3ccccc3n2)c1
solubility thermodynamic at 6 h, µM: 340

(P) NS(=O)(=O)c1cccc(Nc2nc(NCc3ccco3)c3ccccc3n2)c1
(Q) c1ccc(CNc2nc(Nc3ccc(N4CCOCC4)cc3)nc3ccccc23)cc1
(R) NS(=O)(=O)c1cccc(Nc2nc(NCc3ccccc3)c3ccccc3n2)c1
Task: # desc sort on solubility thermodynamic at 6 h across 3 compounds A complete answer lists every label in the requested sequence.
Output: R, Q, P

----------
- Target under test: cGMP-specific 3',5'-cyclic phosphodiesterase (Rattus norvegicus)
Measured metric: IC50 (nM)

Worked cases, IC50 given:
Smiles representation: Cc1cc(Nc2nc(Nc3cccc(S(N)(=O)=O)c3)nc3ccccc23)n[nH]1
Target under test: cGMP-specific 3',5'-cyclic phosphodiesterase (Rattus norvegicus)
IC50 / nM: 3710

Smiles representation: c1ccc(CNc2nc(Nc3ccc(N4CCOCC4)cc3)nc3ccccc23)cc1
Target under test: cGMP-specific 3',5'-cyclic phosphodiesterase (Rattus norvegicus)
IC50 / nM: 525

(I) NS(=O)(=O)c1cccc(Nc2nc(NCc3ccco3)c3ccccc3n2)c1
(II) NC(=O)c1cccc(Nc2nc(NCc3cccs3)c3ccccc3n2)c1
Task: Smaller IC50 value? Options are I and II Output the label that corresponds to your choice.
Output: I
(I: 116 nM, II: 290 nM)

(1) NS(=O)(=O)c1cccc(Nc2nc(NCc3cccs3)c3ccccc3n2)c1
(2) NS(=O)(=O)c1ccc(Nc2nc(NCc3cccs3)c3ccccc3n2)cc1
Task: Task for the reader: decide whether 1 or 2 has the larger IC50. Your choice should be expressed through its label.
Output: 2

----------
- System: Artery
- Protocol text: Vasorelaxant activity in Wistar rat endothelium intact pulmonary artery rings assessed as inhibition of phenylephrine-induced contraction
- Type: functional, tissue-based
pEC50: −log10 of the molar value.
Measured metric: pEC50

Smiles representation: NS(=O)(=O)c1cccc(Nc2nc(NCc3cccs3)c3ccccc3n2)c1
pEC50: 5.64

(P) NS(=O)(=O)c1cccc(Nc2nc(NCc3ccccc3)c3ccccc3n2)c1
(Q) CCCc1nn(C)c2c(=O)[nH]c(-c3cc(S(=O)(=O)N4CCN(C)CC4)ccc3OCC)nc12
Task: For P and Q , which recorded pEC50 is lower? Your answer should be the label of the entry you select.
Output: P
